# Lookup of reported melting point keyed by entry

Given Smiles: Cc1cc(F)ccc1-c1nc(NCCNC(=O)NC2CCCCC2)nc2c1ccc(=O)n2-c1c(F)cccc1F
melting point: 178 to 183 °C
--
Given Smiles: CSCCCOc1nc(-c2ccc(F)cc2C)c2ccc(=O)n(-c3c(F)cccc3F)c2n1
melting point: 127 to 128 °C
--
Given Smiles: Cc1cc(F)ccc1-c1nc(NC(C)(C)CO)nc2c1ccc(=O)n2-c1c(F)cccc1F
melting point: 99 to 105 °C
--
Given Smiles: Cc1cc(F)ccc1-c1nc(NCCO)nc2c1ccc(=O)n2-c1ccccc1F
melting point: 120 to 124 °C
--
Given Smiles: Cc1cc(F)ccc1-c1nc(NC2CCCCC2)nc2c1ccc(=O)n2-c1ccccc1F
melting point: 181 to 182 °C
--
Given Smiles: Cc1cc(F)ccc1-c1nc(NCCNC(=O)Nc2cccc(F)c2)nc2c1ccc(=O)n2-c1c(F)cccc1F
melting point: 131 to 144 °C
--
Given Smiles: Cc1cc(F)ccc1-c1nc(NCCNC(=O)C(C)(C)C)nc2c1ccc(=O)n2-c1c(F)cccc1F
melting point: 111 to 133 °C
--
Given Smiles: CCNc1nc(-c2ccc(F)cc2C)c2ccc(=O)n(-c3c(F)cccc3F)c2n1
melting point: 195 to 196 °C
--
Given Smiles: Cc1cc(F)ccc1-c1nc(NCC(F)(F)F)nc2c1ccc(=O)n2-c1ccccc1F
melting point: 187 to 188 °C
--
Given Smiles: CCNC(=O)NCCNc1nc(-c2ccc(F)cc2C)c2ccc(=O)n(-c3c(F)cccc3F)c2n1
melting point: 130 to 133 °C

* * *

# Lookup of reported melting point keyed by entry
Observation Type: melting point

Molecule: Cc1cc(F)ccc1-c1nc(OCCN(C)S(C)(=O)=O)nc2c1ccc(=O)n2-c1c(F)cccc1F
Result: 89 to 92 °C
--
Molecule: Cc1cc(F)ccc1-c1nc(O)nc2c1ccc(=O)n2-c1ccccc1F (hydrate or solvate)
Result: > 280 °C
--
Molecule: Cc1cc(F)ccc1-c1nc(NC2CCOCC2)nc2c1ccc(=O)n2-c1c(F)cccc1F
Result: 231 to 232 °C
--
Molecule: Cc1cc(F)ccc1-c1nc(N[C@H]2CC[C@H](O)CC2)nc2c1ccc(=O)n2-c1ccccc1F
Result: 148 to 151 °C
--
Molecule: COC(=O)CNc1nc(-c2ccc(F)cc2C)c2ccc(=O)n(-c3c(F)cccc3F)c2n1
Result: 212 to 213 °C
--
Molecule: Cc1cc(F)ccc1-c1nc(OCCN)nc2c1ccc(=O)n2-c1c(F)cccc1F
Result: 96 to 99 °C
--
Molecule: CC(=O)NCCOc1nc(-c2ccc(F)cc2C)c2ccc(=O)n(-c3c(F)cccc3F)c2n1
Result: 75 to 79 °C
--
Molecule: Cc1cc(F)ccc1-c1nc(N[C@H](C)CO)nc2c1ccc(=O)n2-c1c(F)cccc1F
Result: 90 to 95 °C
--
Molecule: Cc1cc(F)ccc1-c1nc(NCCNS(C)(=O)=O)nc2c1ccc(=O)n2-c1c(F)cccc1F
Result: 105 to 115 °C (dec.)
--
Molecule: Cc1cc(F)ccc1-c1nc(NCC(=O)O)nc2c1ccc(=O)n2-c1c(F)cccc1F
Result: 260 to 261 °C
--
Molecule: Cc1cc(F)ccc1-c1nc(OCCNC(=O)OC(C)(C)C)nc2c1ccc(=O)n2-c1c(F)cccc1F
Result: 103 to 105 °C
--
Molecule: Cc1cc(F)ccc1-c1nc(NC2CCOCC2)nc2c1ccc(=O)n2-c1ccccc1F
Result: 211 to 212 °C
--
Molecule: Cc1cc(F)ccc1-c1nc(N[C@H]2CC[C@H](O)CC2)nc2c1ccc(=O)n2-c1c(F)cccc1F
Result: 158 to 160 °C
--
Molecule: Cc1cc(F)ccc1-c1nc(N[C@@H](C)CO)nc2c1ccc(=O)n2-c1c(F)cccc1F
Result: 96 to 101 °C
--
Molecule: Cc1cc(F)ccc1-c1nc(NC(C)(C)CO)nc2c1ccc(=O)n2-c1ccccc1F
Result: 106 to 112 °C
--
Molecule: Cc1cc(F)ccc1-c1nc(NC2CCCCC2)nc2c1ccc(=O)n2-c1c(F)cccc1F
Result: 218 to 219 °C
--
Molecule: Cc1cc(F)ccc1-c1nc(OCCNS(C)(=O)=O)nc2c1ccc(=O)n2-c1c(F)cccc1F
Result: 95 to 99 °C
--
Molecule: CCOc1nc(-c2ccc(F)cc2C)c2ccc(=O)n(-c3ccccc3F)c2n1
Result: 137 to 139 °C
--
Molecule: Cc1cc(F)ccc1-c1nc(NC(C)(CO)CO)nc2c1ccc(=O)n2-c1c(F)cccc1F
Result: 158 to 160 °C
--
Molecule: Cc1cc(F)ccc1-c1nc(N[C@H](C)CO)nc2c1ccc(=O)n2-c1ccccc1F
Result: 116 to 122 °C
